- experiment_summary: aggregation and purification amounts of deglycosylated antibodies, before and after φ
- Assay type: physicochemical
- test_context: based on 100 ml culture
measured_quantity: Fraction2, After φ (mg)
Please reply with the bare figure in mg and do not write the unit itself.

Deglyco-C2: deglycosylated clone 1 IgG; light chain CDR1 TGSSSNIGATAVT (SEQ ID NO: 3) (antibody, V domains shown) VH: EVQLVESGGGLVQPGGSLRLSCAVSGFTFSGYDMSWIRQAPGKGLEWVAGIYPDGGNTYYADSVKGRFTISRDDSKNTFYLQMNSLRAEDTAVYYCARGATWWVLGPFDYWGQGTLVTVSS VL: DIQLTQSPSSLSASVGDRVTITCTGSSSNIGATAVTWYQQKPGKAPKLLIYADSHRPSGVPSRFSGSGSGTDFTLTISSLQPEDFATYYCGAWDDSLSGYVFGQGTKVEIKR has a reported Fraction2, After φ of 3.702
